Experimental target: human TGR5 receptor (Homo sapiens)
Test description: Human TGR5 cAMP production assay
Condition context: human TGR5, luminescent cAMP assay; coded A-D; read-out: Human TGR5 Lum. cAMP Activity (EC50)
Property label: EC50

| Compound | Experimental target | EC50 |
| --- | --- | --- |
| COCCOc1cnccc1-c1cccc(C(C)(C)NS(=O)(=O)c2cccc(C(F)(F)F)c2)c1 | human TGR5 receptor (Homo sapiens) | 0.1 to 0.999 µM |
| Cc1cnccc1-c1cccc(C2CN(C(=O)CCCC(=O)O)CCN2S(=O)(=O)c2cccc(Cl)c2C)c1 (stereo not shown) [Compound 46AE] | human TGR5 receptor (Homo sapiens) | < 0.1 µM |
| Cc1cnccc1-c1cccc([C@H](C)N(CCCC(=O)NCCC(=O)NCC(=O)O)S(=O)(=O)c2cccc(Cl)c2C)c1 [Compound 21AM] | human TGR5 receptor (Homo sapiens) | < 0.1 µM |
| Cc1cnccc1-c1cccc([C@H](C)N(CCCC(=O)NCCS(=O)(=O)NCC(=O)O)S(=O)(=O)c2ccc(F)cc2C(F)(F)F)c1 | human TGR5 receptor (Homo sapiens) | < 0.1 µM |
| Cc1cnccc1-c1cccc(C(C)(C)N(CCCNC(=O)NCCS(=O)(=O)O)S(=O)(=O)c2cccc(Cl)c2C)c1 [Compound 29AA] | human TGR5 receptor (Homo sapiens) | < 0.1 µM |
| COc1cnccc1-c1cccc(C(C)(C)NS(=O)(=O)c2cccc(C(F)(F)F)c2)c1 | human TGR5 receptor (Homo sapiens) | < 0.1 µM |
| CCc1cnccc1-c1cccc(C2CN(C(=O)CCC(=O)O)CCN2S(=O)(=O)c2cccc(Cl)c2C)c1 (racemic) | human TGR5 receptor (Homo sapiens) | < 0.1 µM |
| COc1cnccc1-c1cccc(C(C)(C)NS(=O)(=O)c2cccc(Cl)c2Cl)c1 | human TGR5 receptor (Homo sapiens) | < 0.1 µM |

For every record below, what is its EC50?
1. Cc1cnccc1-c1cccc(CCNS(=O)(=O)c2ccccc2C(F)(F)F)c1
2. Cc1cnccc1-c1cccc([C@H](C)N(CCCCC(=O)NCCOCCN)S(=O)(=O)c2cccc(Cl)c2C)c1 [Compound 20AT]
3. Cc1cnccc1-c1cccc(C(C)(C)N(CCCC(=O)NCCS(=O)(=O)NCC(=O)O)S(=O)(=O)c2cccc(Cl)c2C)c1 [Compound 20AW]
4. CCc1cnccc1-c1cccc([C@H](C)N(CCCC(=O)NCCS(=O)(=O)NCC(=O)O)S(=O)(=O)c2ccccc2C(F)(F)F)c1 [Compound 20BG]
5. O=S(=O)(NCc1ccc(Cl)c(-c2ccncc2)c1)c1cccc(C(F)(F)F)c1
6. CCc1cnccc1-c1cccc([C@H](C)N(CCCC(=O)NCCNS(=O)(=O)NCC(=O)O)S(=O)(=O)c2cccc(Cl)c2C)c1 [Compound 38AA]
7. Cc1cncnc1-c1cccc(C(C)(C)NS(=O)(=O)c2ccccc2C(F)(F)F)c1

**Result**
0.1 to 0.999 µM
< 0.1 µM
< 0.1 µM
< 0.1 µM
1 to 30 µM
< 0.1 µM
1 to 30 µM

**Query** Fill in: EC50 of CC(C)(NS(=O)(=O)c1cccc(C(F)(F)F)c1)c1cccc(-c2ccnc(C(F)(F)F)c2)c1 is ___
**Result** 1 to 30 µM

----------
Experimental target: human TGR5 receptor (Homo sapiens, UniProt Q8TDU6)
Sequence (Q8TDU6 whole entry): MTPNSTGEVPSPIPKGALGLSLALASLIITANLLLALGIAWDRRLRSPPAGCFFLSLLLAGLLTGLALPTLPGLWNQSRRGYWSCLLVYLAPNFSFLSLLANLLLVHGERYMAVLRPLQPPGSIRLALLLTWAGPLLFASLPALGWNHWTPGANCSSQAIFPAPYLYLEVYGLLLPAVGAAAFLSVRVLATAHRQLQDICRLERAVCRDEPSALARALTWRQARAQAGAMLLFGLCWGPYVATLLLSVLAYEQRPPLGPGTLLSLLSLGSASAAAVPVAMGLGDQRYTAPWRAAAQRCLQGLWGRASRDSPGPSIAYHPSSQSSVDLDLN
Test description: Human TGR5 cAMP production assay
Condition context: human TGR5, luminescent cAMP assay; coded A-D; read-out: Human TGR5 Lum. cAMP Activity (EC50)
Task for the reader: assign each of the following compounds its reported EC50.

Worked cases, answers included:
| Compound | EC50 |
| --- | --- |
| CCc1cnccc1-c1cccc([C@H](C)N(CCCC(=O)NCCN)S(=O)(=O)c2cccc(Cl)c2C)c1 [Compound 21AS] | < 100 nM |
| COc1cnccc1-c1cccc(C(C)(C)NS(=O)(=O)c2ccccc2N)c1 | 100 to 999 nM |
| CC(C)Oc1cnccc1-c1cccc(C(C)(C)NS(=O)(=O)c2cccc(C(F)(F)F)c2)c1 | 100 to 999 nM |
| O=S(=O)(NCc1cccc(-c2ccncc2F)c1)c1cccc(C(F)(F)F)c1 | 100 to 999 nM |

For every record below, what is its EC50?
1. COc1cnccc1-c1cccc(C(C)(C)NS(=O)(=O)c2ccccc2[N+](=O)[O-])c1
2. COc1cnccc1-c1cccc(C(C)(C)NS(=O)(=O)c2cc(C(F)(F)F)ccc2C(F)(F)F)c1
3. Cc1cnccc1-c1cccc([C@H](C)N(CCCC(=O)NCCNS(=O)(=O)NCC(=O)O)S(=O)(=O)c2cccc(Cl)c2C)c1

**Result**
< 100 nM
100 to 999 nM
< 100 nM
